Form field: pIC50 (one value per entry).
- target-under-test: UniProtKB Q9H1C0
- Sequence (Q9H1C0 whole entry): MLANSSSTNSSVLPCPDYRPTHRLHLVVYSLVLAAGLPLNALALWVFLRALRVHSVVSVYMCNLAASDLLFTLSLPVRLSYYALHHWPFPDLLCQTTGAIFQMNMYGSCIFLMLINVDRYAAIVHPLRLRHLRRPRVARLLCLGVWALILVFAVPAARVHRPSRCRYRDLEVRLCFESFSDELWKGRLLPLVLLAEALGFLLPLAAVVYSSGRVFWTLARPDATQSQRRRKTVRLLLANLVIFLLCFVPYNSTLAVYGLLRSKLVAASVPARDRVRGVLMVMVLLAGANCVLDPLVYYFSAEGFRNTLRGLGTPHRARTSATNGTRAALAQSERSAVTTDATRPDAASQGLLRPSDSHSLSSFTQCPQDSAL
- protocol: Aggregation assay for washed human blood platelets (LPA-induced)
- Format: cell-based
- study-conditions: reduction of the maximal aggregation, 5 minutes incubation at 37° C.
Just the number, please; pIC50 means minus log10 of the concentration in mol/L.

Consider the worked cases shown below.
CCOc1cccc2c1C(C1CCCCC1)(C1CCCCC1)OC(C(=O)O)O2 (stereo not drawn) = 5.23
CCN(CC)c1ccc2c(c1)OC(C(=O)O)OC2(C1CCCCC1)C1CCCCC1 (stereo not drawn) = 5.57

State, in one line, measured pIC50 of COc1cc(C)c2c(c1)OC(C(=O)O)OC2(C1CCCCC1)C1CCCCC1 (stereo not drawn) 5.62

For the molecule O=C(O)C1Oc2cc(OCc3ccccc3)ccc2C(C2CCCCC2)(C2CCCCC2)O1 (stereo not drawn) , give its measured pIC50 value. 4.95

Hello, please tell me recorded pIC50 for this one: O=C(O)C1Oc2ccc(Cl)cc2C(C2CCCCC2)(C2CCCCC2)O1 (stereo not drawn) 5.96

Give me measured pIC50, please, for this molecule: O=C(O)C1Oc2c(OC(F)(F)F)cccc2C(C2CCCCC2)(C2CCCCC2)O1 (stereo not drawn) 5.27

###

Each entry below carries its recorded pIC50.
- target-under-test: LPA receptor LPAR5 (Mus musculus, UniProt Q149R9)
- Construct: two cell lines were used with high LPAR5 expression; endogenous in cells
- Sequence (Q149R9 whole entry): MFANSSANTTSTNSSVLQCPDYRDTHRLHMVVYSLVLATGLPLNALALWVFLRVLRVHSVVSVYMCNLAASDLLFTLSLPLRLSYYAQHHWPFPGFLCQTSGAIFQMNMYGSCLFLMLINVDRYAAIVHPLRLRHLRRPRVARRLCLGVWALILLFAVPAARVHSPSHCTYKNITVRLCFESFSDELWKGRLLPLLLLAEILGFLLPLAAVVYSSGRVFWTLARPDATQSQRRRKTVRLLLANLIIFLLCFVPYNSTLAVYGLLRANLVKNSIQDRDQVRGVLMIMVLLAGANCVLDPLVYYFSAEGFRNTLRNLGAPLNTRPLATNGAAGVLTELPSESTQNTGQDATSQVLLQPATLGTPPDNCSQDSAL
- protocol: FLIPR assay, intracellular Ca2+ release in murine microglia cell line BV-2
- study-conditions: murine microglia cell line BV-2, LPA-stimulated Ca2+ release, test compounds added 10 minutes prior LPA
- Text: B) Use of the Fluorometric Imaging Plate Reader (FLIPR) Assay for the Determination of Intracellular Ca^2+ Release in Human Mast Cell Line HMC-1 and the Murine Microglia Cell Line BV-2 The ability of the compounds of the formula I to inhibit or bind the LPA receptor LPAR5 can be assessed by determining the intracellular Ca^2+ release in human or animal cells. […]
Value format note: pIC50 is -log10 of concentration (mol/L); just state the number.

Tell me pIC50 of O=C(O)C1Oc2ccc(Cl)cc2C(C2CCCCC2)(C2CCCCC2)O1 (stereo not drawn) when tested on LPA receptor LPAR5 (Mus musculus, UniProt Q149R9). 5.39

Param request: pIC50 | system LPA receptor LPAR5 (Mus musculus, UniProt Q149R9) | item Cc1cccc2c1OC(C(=O)O)OC2(C1CCCCC1)C1CCCCC1 (stereo not drawn) 5.10

Provide pIC50, recorded with LPA receptor LPAR5 (Mus musculus, UniProt Q149R9), of O=C(O)C1Oc2ccc(OC(F)(F)F)cc2C(C2CCCCC2)(C2CCCCC2)O1 (stereo not drawn) 5.82

###

- target-under-test: UniProtKB Q9H1C0
- protocol: FLIPR assay, intracellular Ca2+ release in human mast cell line HMC-1
- Type: cell-based
- Set-up: two cell lines were used with high LPAR5 expression; endogenous in cells; host or cells: HMC-1 human mast cell line
- study-conditions: human mast cell line HMC-1, LPA-stimulated Ca2+ release, test compounds added 10 minutes prior LPA
recorded-endpoint: IC50
Write the figure, then the unit, nothing else.

CCN(CC)c1ccc2c(c1)OC(C(=O)O)OC2(C1CCCCC1)C1CCCCC1 (stereo not shown) = 3.6 µM
O=C(O)C1Oc2c(Cl)cc(Cl)cc2C(C2CCCCC2)(C2CCCCC2)O1 (stereo not shown) = 3.5 µM
O=C(c1ccc(Cl)cc1)c1ccc2c(c1)C(C1CCCCC1)(C1CCCCC1)OC(C(=O)O)O2 (stereo not shown) = 3.4 µM
O=C(O)C1Oc2ccc3ccccc3c2C(C2CCCCC2)(C2CCCCC2)O1 (stereo not shown) = 3.3 µM
CCCCOc1ccc2c(c1)OC(C(=O)O)OC2(C1CCCCC1)C1CCCCC1 (stereo not shown) = 5.2 µM
O=c1[nH]nc(C2Oc3ccc(Cl)cc3C(C3CCCCC3)(C3CCCCC3)O2)o1 (stereo not shown) = 7.7 µM

Okay, next one:
Answer with the recorded IC50 of O=C(O)C1Oc2cc(-n3cccc3)ccc2C(C2CCCCC2)(C2CCCCC2)O1 (stereo not shown) only. 3.4 µM
